Taken from ChEMBL document CHEMBL1124615.

PROTOCOL_TEXT: Compound was tested for the toxic effect in mice after intraperitoneal injection
Assay type: ADME, organism-based
PARTICULARS: mouse, in vivo, ip
PROPERTY_NAME: LD50

COMPOUND_SMILES | LD50
CSSc1cccc2cccc(COC(C)=O)c12 | > 1000 mg/kg

Here's the next entry for you.
Value of measured LD50 for the entry `c1cc2c3c(cccc3c1)SC2` : ~640 mg/kg
